# Test system: PC-3
# testProtocol: Growth inhibition of human PC3 cells after 48 hrs by sulforhodamine B assay
# Type: functional
# conditionParameters: PC-3, 48 h
reportedProperty: GI50 (µg/mL)

Example entries and their recorded answers appear below.
Query block: Need GI50, item CCOC(=O)C1=C(C)NC(=S)NC1c1ccc(SC)cc1 (centres undefined)
Result block: 23.6

Query block: Cool, now CCOC(=O)C1=C(C)NC(=S)NC1c1cccc(OC)c1 (centres undefined)
Result block: 10.2

Query block: What do you get for CCOC(=O)C1=C(C)NC(=O)NC1c1ccc(O)c(OC)c1 (centres undefined) ?
Result block: 46.3

Query block: Let us now turn to "CCOC(=O)C1=C(C)NC(=S)N[C@H]1c1cccc(O)c1"
Result block: 5.6

Query block: Input CCOC(=O)C1=C(C)NC(=O)NC1c1ccc(O)c(O)c1 (centres undefined)
Result block: 18.2

[I] CCOC(=O)C1=C(C)NC(=S)NC1c1ccccc1 (centres undefined)
[II] CCOC(=O)C1=C(C)NC(=S)NC1c1ccc(O)c(OC)c1 (centres undefined)
Query block: Of I and II , which shows the smaller GI50 value? Give the label of your selection.
Result block: I

[A] CCOC(=O)C1=C(C)NC(=O)NC1c1ccc(F)cc1 (centres undefined)
[B] CCOC(=O)C1=C(C)NC(=O)NC1c1ccc2c(c1)OCO2 (centres undefined)
[C] CCOC(=O)C1=C(C)NC(=S)NC1c1cc(OC)c(O)c(OC)c1 (centres undefined)
[D] CCOC(=O)C1=C(C)NC(=S)NC1c1ccc(O)cc1 (centres undefined)
[E] CCOC(=O)C1=C(C)NC(=O)NC1c1ccc(O)cc1 (centres undefined)
Query block: Thanks in advance: please rank these 5 entries by GI50, highest to lowest. # the answer lists labels in the order requested
Result block: E, B, D, C, A

[1] CCOC(=O)C1=C(C)NC(=S)NC1c1ccc2c(c1)OCO2 (centres undefined)
[2] CCOC(=O)C1=C(C)NC(=S)NC1c1ccc(F)cc1 (centres undefined)
Query block: // returns 1 or 2 , whichever has the lower GI50 Return value: the label identifying the chosen record.
Result block: 2
(2: 1.7 µg/mL, 1: 13.4 µg/mL)

[a] CCOC(=O)C1=C(C)NC(=O)NC1c1ccc(SC)cc1 (centres undefined)
[b] CCOC(=O)C1=C(C)NC(=O)NC1c1ccc(OC)cc1 (centres undefined)
[c] CCOC(=O)C1=C(C)NC(=S)NC1c1ccc(OC)cc1 (centres undefined)
[d] CCCC1NC(=S)NC(C)=C1C(=O)OCC (centres undefined)
Query block: Order each entry by recorded GI50, climbing from the minimum. Give the labels in the order requested.
Result block: c, a, b, d

====

# testProtocol: Antioxidant activity assessed as concentration required for 50% DPPH scavenging activity after 30 mins by spectrophotometry
# Format: functional
reportedProperty: IC50 (µM)

Here's what some known entries look like.
Query block: If you can, please state the reported IC50 value of CCOC(=O)C1=C(C)NC(=S)NC1c1ccc(O)c(OC)c1 (stereo not given) .
Result block: 104

Query block: Next up: CCOC(=O)C1=C(C)NC(=S)NC1c1cc(OC)c(O)c(OC)c1 (stereo not given)
Result block: 24.2

[A] CCOC(=O)C1=C(C)NC(=S)NC1c1ccc(O)c(O)c1 (stereo not given)
[B] CCOC(=O)C1=C(C)NC(=O)NC1c1ccc(O)c(OC)c1 (stereo not given)
[C] CCOC(=O)C1=C(C)NC(=O)NC1c1ccc(O)c(O)c1 (stereo not given)
Query block: In this exercise, place the 3 compounds in ascending sequence of their recorded IC50. Field: ranking. Enter the labels in the order requested.
Result block: C, A, B
(C: 20.3 µM, A: 29.7 µM, B: 105 µM)

All figures here come from ChEMBL document CHEMBL2010753.
